From: the supplement of paper PMC10567573

B1: C19orf51 (parent)
chain: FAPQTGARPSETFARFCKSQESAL

- Variants of: B1
- experiment_description: protein stability index of a GFP-peptide fusion (GPS, HEK-293T) (PSI 1-6); higher = more stable;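 note: lentivirally expressed fusions sorted by FACS into six bins by GFP to DsRed ratio, PSI derived from sequencing read proportions per bin multiplied by bin number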
- protocol_conditions: c terminus: a fixed tail appended
# binarize protein stability index: threshold 2 inclusive, high side 1.0, low side 0.0

Reference set, count: 10
> print(dat)
    variant.code  category.label
 1          S19N             0.0
 2          R15K             1.0
 3          T12M             1.0
 4          C17G             1.0
 5           P9L             0.0
 6           A7C             1.0
 7          R15N             1.0
 8           Q4I             1.0
 9           A2K             1.0
10          F13H             0.0

Now look at this entry.
Task: Say whether S10I shows protein stability index of 2 or more.
Output: 1.0
